method.description: Biodistribution of 177Lu-labeled αMSH analogues in mice bearing B16F10 mouse melanoma
Type: in vivo, C57BL/6J mice
test.settings: mouse, fat, iv, total radioactivity; 24 h p.i., C57BL/6J mice, B16F10 melanoma; read-out: Biodistribution, Fat
tissue uptake at 24 h values for the compounds below.

[
  {
    "compound": "CCCC[C@H](NC(=O)CN1CCC(NC(=O)CN2CCN(CC(=O)O)CCN(CC(=O)O)CCN(CC(=O)O)CC2)CC1)C(=O)N[C@H]1CC(=O)NCCCC[C@@H](C(N)=O)N(C)C(=O)[C@H](Cc2c[nH]c3ccccc23)NC(=O)[C@H](CCCNC(=N)N)N(C)C(=O)[C@@H](Cc2ccccc2)NC(=O)[C@H](Cc2c[nH]cn2)NC1=O [^177Lu-labeled CCZ01106, metal not drawn]",
    "tissue uptake at 24 h / %ID/g": 0.01
  },
  {
    "compound": "CCCC[C@H](NC(=O)CN1CCC(NC(=O)[C@H](CCCCNC(=O)CN2CCN(CC(=O)O)CCN(CC(=O)O)CCN(CC(=O)O)CC2)NC(=O)[C@H](CCC(=O)O)NC(=O)CCCc2ccc(I)cc2)CC1)C(=O)N[C@H]1CC(=O)NCCCC[C@@H](C(N)=O)NC(=O)[C@H](Cc2c[nH]c3ccccc23)NC(=O)[C@H](CCCNC(=N)N)NC(=O)[C@@H](Cc2ccccc2)NC(=O)[C@H](Cc2c[nH]cn2)NC1=O [^177Lu-labeled CCZ01082, metal not drawn]",
    "tissue uptake at 24 h / %ID/g": 0.1
  },
  {
    "compound": "CCCC[C@H](NC(=O)CN1CCC(NC(=O)CN2CCN(CC(=O)O)CCN(CC(=O)O)CCN(CC(=O)O)CC2)CC1)C(=O)N[C@H]1CC(=O)NCCCC[C@@H](C(N)=O)N(C)C(=O)[C@H](Cc2c[nH]c3ccccc23)N(C)C(=O)[C@H](CCCNC(=N)N)N(C)C(=O)[C@@H](Cc2ccccc2)NC(=O)[C@H](Cc2c[nH]cn2)N(C)C1=O [^177Lu-labeled CCZ01099, metal not drawn]",
    "tissue uptake at 24 h / %ID/g": 0.01
  },
  {
    "compound": "CCCC[C@H](NC(=O)CN1CCC(NC(=O)[C@H](CCCCNC(=O)CN2CCN(CC(=O)O)CCN(CC(=O)O)CCN(CC(=O)O)CC2)NC(=O)[C@H](CCC(=O)O)NC(=O)CCCc2ccc(I)cc2)CC1)C(=O)N[C@H]1CC(=O)NCCCC[C@@H](C(N)=O)N(C)C(=O)[C@H](Cc2c[nH]c3ccccc23)NC(=O)[C@H](CCCNC(=N)N)N(C)C(=O)[C@@H](Cc2ccccc2)NC(=O)[C@H](Cc2c[nH]cn2)NC1=O [^177Lu-labeled CCZ01118, metal not drawn]",
    "tissue uptake at 24 h / %ID/g": 0.03
  },
  {
    "compound": "CCCC[C@H](NC(=O)CN1CCC(NC(=O)[C@H](CCCCNC(=O)CN2CCN(CC(=O)O)CCN(CC(=O)O)CCN(CC(=O)O)CC2)NC(=O)[C@H](CCC(=O)O)NC(=O)CCCc2ccc(I)cc2)CC1)C(=O)N[C@H]1CC(=O)NCCCC[C@@H](C(N)=O)N(C)C(=O)[C@H](Cc2c[nH]c3ccccc23)N(C)C(=O)[C@H](CCCNC(=N)N)N(C)C(=O)[C@@H](Cc2ccccc2)NC(=O)[C@H](Cc2c[nH]cn2)N(C)C1=O [^177Lu-labeled CCZ01088, metal not drawn]",
    "tissue uptake at 24 h / %ID/g": 0.06
  }
]

Reference source: patent US11395857B2
